# maps each entry to its viability at 100 µM
- System: CCRF-CEM
- protocol: Anticancer activity against human CCRF-CEM cells assessed as cell viability at 100 uM after 24 hrs by MTT assay
- Assay type: functional
- setupConditions: read-out: Activity

>  <compound>
C[C@H](O)CCn1nc2c(Br)c(Br)c(Br)c(Br)c2n1

>  <quantityUnit>
%

>  <viability at 100 µM>
36

$$$$
>  <compound>
OCC(O)Cn1nc2c(Br)c(Br)c(Br)c(Br)c2n1 (racemic)

>  <quantityUnit>
%

>  <viability at 100 µM>
8

$$$$
>  <compound>
OC(CCn1nc2c(Br)c(Br)c(Br)c(Br)c2n1)c1ccc(Br)cc1 (centres undefined)

>  <quantityUnit>
%

>  <viability at 100 µM>
0

$$$$
>  <compound>
OC(CCn1nc2c(Br)c(Br)c(Br)c(Br)c2n1)c1ccccc1 (racemic)

>  <quantityUnit>
%

>  <viability at 100 µM>
21

$$$$
